Biological target: ScPex13
Assay: SPOT peptide array binding signal intensity (averaged, normalized) (arbitrary units (background-subtracted, floor 0; scale differs between SH3 domains)); higher = stronger binding of the SH3 domain to the peptide
Listed here are binders together with their documented SPOT peptide array binding signal intensity.
endpoint: SPOT peptide array binding signal intensity

# binder, comparison-symbol, recorded-measurement
records = [
    ("HVRRSILALPLGVLL", "≤", 0),
    ("PSRRAPLQLPQLVNK", "≤", 0),
    ("NVLRKILEIPLHSFS", "≤", 0),
    ("LLRRTIPKRPFYHVL", "=", 110),
    ("LYEAMPPTLPHRDWK", "=", 807),
    ("LKVTPGRRAPTISKI", "≤", 0),
    ("ERPKRRAPPPVPKKP", "=", 257),
]
